Test system: NCI-H23
Assay: NCI tumour cell line growth inhibition, 48 h
The source made the active and inactive calls. Cut-off read from the data, not from the text of the source: active = GI50 up to about 1.1 µM and inactive = higher.
Outcome codes: active, inactive

molecule: COc1ccc(C(c2cc3c(cc2O)OCO3)N2CCOCC2)cc1OC (stereo not given)
answer label: inactive

molecule: COc1cc(Nc2nnc3n2S(=O)(=O)c2cc(C)c(Cl)cc2S3)cc(OC)c1
answer label: inactive

molecule: COc1c(Br)cc(/C=C(\C#N)c2ccccn2)cc1Br
answer label: inactive

molecule: O=C1C(=CNC(=S)c2ccccc2)C(=O)c2ccccc21
answer label: inactive

molecule: CCCCCCNC(=O)CCC(NC(=O)c1ccc(N(C)Cc2cnc3nc(N)nc(N)c3n2)cc1)C(=O)NCCCCCC (stereo not given)
answer label: inactive

molecule: CCCCCCCCCCCCCCCCOCC(COP(=O)([O-])OCC[N+](C)(C)C)OCCCCCCCCCCCCCCCC (stereo not given)
answer label: inactive

molecule: C[C@]12CC[C@@H]3c4ccccc4CC[C@H]3[C@@H]1CC[C@@H]2O
answer label: inactive

molecule: N#CC(C(=O)/C(=N\NC(N)=O)C(C#N)c1ccc(Cl)cc1)c1ccc(Cl)cc1 (stereo not given)
answer label: inactive

molecule: O=C1CCCCC1CN1CCCC1 (stereo not given)
answer label: inactive

molecule: O=C(Nc1ccc(F)cc1)c1cc2ccc(O)cc2o/c1=N\c1ccccc1F
answer label: inactive

molecule: CCOc1cc2c(cc1O)C(O)C[C@@H]1[C@@H]2CC[C@]2(C)[C@@H](O)CC[C@@H]12 (stereo not given in full)
answer label: active

molecule: N#CC1=C(N)Nc2nc3ccccc3n2C1c1ccccc1 (stereo not given)
answer label: inactive

molecule: CCOC(=O)Nc1ccc(S(=O)(=O)I)cc1.CCOC(=O)Nc1ccc(S(=O)(=O)I)cc1.CNC(=O)N=O.NC(=O)OCCCl
answer label: inactive

molecule: COc1cc(C2SCCCCCCCCCCSC(c3ccc(O)c(OC)c3)SCCCCCCCCCCS2)ccc1O (stereo not given)
answer label: inactive

molecule: O=C(O)/C(Cl)=C(\Cl)C(=O)NC1C2CC3CC(C2)CC1C3 (stereo not given)
answer label: inactive

molecule: CSc1c(C#N)c(N)n2c1C(=O)N(c1ccccc1)C2=S
answer label: inactive

molecule: CCOc1ccc2[nH]c3c(C)c4ccncc4c(C)c3c2c1
answer label: inactive

molecule: Cc1c(F)c(NC(=O)CN(C)C)c2c(=O)cc(-c3ccc(NC(=O)CN(C)C)c(F)c3)oc2c1F
answer label: inactive

molecule: O=C1C(=O)c2cc([N+](=O)[O-])ccc2-c2ccc([N+](=O)[O-])cc21
answer label: active

molecule: CC1(CCOCc2ccccc2)NC(=O)NC1=O (stereo not given)
answer label: inactive

molecule: O=c1sc2c(s1)-c1sc(=O)sc1SS2
answer label: inactive

molecule: C[C@@]1(OC(=O)c2cc([N+](=O)[O-])cc([N+](=O)[O-])c2)C[C@@H]2CCCC[C@@H]21
answer label: inactive

molecule: CC(NC(=O)c1c(O)[nH]c(=S)[nH]c1=O)c1ccc([N+](=O)[O-])cc1 (stereo not given)
answer label: inactive

molecule: Brc1ccc2[nH]cc(-c3csc(-c4ccccn4)n3)c2c1
answer label: inactive

molecule: Cn1cc(-c2cnc(-c3cn(C)c4ccccc34)cn2)c2ccccc21
answer label: inactive

molecule: Cc1cc(O)no1
answer label: inactive

molecule: Cn1c(=O)c2sc3c4sc5c(=O)n(C)c6ccccc6c5c4sc3c2c2ccccc21
answer label: inactive

molecule: CC12Nc3ccccc3N1C(=O)c1ccccc12 (stereo not given)
answer label: inactive

molecule: CC(=O)OCC1OC(n2c(-c3ccc(N)cc3)cc(-c3ccco3)c(C#N)c2=O)C(OC(C)=O)C(OC(C)=O)C1OC(C)=O (stereo not given)
answer label: inactive

molecule: CN(C)C(=O)NC(=S)N(C)C
answer label: inactive

molecule: COc1ccc(/C(=N/OCCCC(=O)O)c2cccs2)cc1
answer label: inactive

molecule: COc1c(C(=O)O)cccc1-c1cccc(C(=O)NCCN(CCNC(=O)c2cccc(-c3cccc(C(=O)O)c3OC)c2OC)CCNC(=O)c2cccc(-c3cccc(C(=O)O)c3OC)c2OC)c1OC
answer label: inactive

molecule: CCSc1nc(-c2ccc(OC)cc2)c(C#N)c(=O)n1C1OCC(OC(C)=O)C(OC(C)=O)C1OC(C)=O (stereo not given)
answer label: inactive

molecule: CCc1nc2ccc(/N=N/N(C)C)cc2[nH]1
answer label: inactive

molecule: COS(=O)c1cc(Cl)cc(Cl)c1OC(=O)CSSCC(=O)Oc1c(Cl)cc(Cl)cc1S(=O)OC (stereo not given)
answer label: inactive

molecule: COc1cc2c(cc1OC)C1CN3C(=O)CCC3C(O)C1c1cc(OC)c(OC)cc1-2 (stereo not given)
answer label: inactive

molecule: COc1ccc2c(c1C)C(=O)C(O)(CC=C(C)C)O2 (stereo not given)
answer label: inactive

molecule: COc1cc(/N=N/N(C)C)c(C(C)c2c3cc(OC)c(OC)cc3cc[n+]2C)cc1OC (stereo not given)
answer label: inactive

molecule: CC(=O)O[C@H]1CCC2[C@@H]3CCC4C(=O)c5oncc5C[C@]4(C)C3CC[C@@]21C (stereo not given in full)
answer label: inactive

molecule: CC(C)c1cccc(C(C)C)c1N1C(=O)C(=O)C(c2nc3ccccc3o2)C(=O)C1=O
answer label: inactive
